Please respond with reported melting point for every item in the list.

Which melting point is listed for CC1(c2nn(-c3ccc([N+](=O)[O-])cc3Cl)c(=O)o2)CC1 ?
95 to 97 °C

Which melting point is listed for COC(=O)c1nn(-c2ccccc2)c2sc(CN3CCOCC3)cc2c1=O ?
167 to 169 °C

Which melting point is listed for CCC(CC)C(=C(C#N)c1nc[nH]n1)S(=O)(=O)c1ccc(C)cc1 ?
78 to 87 °C

Which melting point is listed for O=c1[nH]c2cc(Cl)ccc2c(O)c1-c1cccc(S(=O)(=O)c2ccccc2)c1 ?
260 °C

Which melting point is listed for O=C1c2c(Cl)cccc2-n2cnc(-c3nc(C4CCC4)no3)c2[C@@H]2CCCN12 ?
183 to 185 °C

Which melting point is listed for CCOC(=O)c1cnoc1-c1cc(Cl)cc(Cl)c1 ?
50 to 51 °C

Which melting point is listed for CCOc1cc(Nc2cccc3c2C(=O)N(C2CCC(=O)NC2=O)C3=O)ccc1OC (configuration not stated) ?
162 to 164 °C

Which melting point is listed for CS(=O)c1ccccc1S(=O)(=O)c1ccc(NC(=O)C(C)(O)C(F)(F)F)c(Cl)c1 (configuration not stated) ?
118 to 120 °C

Which melting point is listed for CCOC(=O)c1ccc(NC(=O)c2ccc3c(c2)OCCO3)cc1 ?
134 to 136 °C

Which melting point is listed for O=C1CCC2C=C(c3cccnc3)C=C(F)C2N1 (configuration not stated) ?
203 °C

Which melting point is listed for Cc1nnc2n1-c1sc(C#CCn3c(=O)n(C)c(=O)c4ccccc43)cc1C(c1ccccc1Cl)=NC2 ?
167 to 170 °C

Which melting point is listed for CCOC(=O)C(Cc1ccc(OCc2ccccc2)cc1)Oc1ccc(Cl)cc1 (configuration not stated) ?
63 to 64 °C

---

Please respond with reported melting point for every item in the list.

Which melting point is listed for Cc1cc(C(O)(C(F)(F)F)C(F)(F)F)cc(C)c1OCCN ?
167 to 169 °C

Which melting point is listed for COC(=O)c1cc(CO)nn1-c1ncccc1Cl ?
104 °C

Which melting point is listed for O=C(Cc1ccc2[nH]cc(CCN3C(=O)c4ccccc4C3=O)c2c1)NC1CCCCC1 ?
175 to 176 °C

Which melting point is listed for O=C(Nc1cc(F)cc2c(Cl)ccnc12)c1c(Cl)cccc1Cl ?
200 to 213 °C

Which melting point is listed for NC(=O)NN=Cc1ccc(Cc2ccccc2)cc1 ?
118 to 120 °C

Which melting point is listed for CCCCCCCCCCCCCCCCCC(=O)OC(CO)CO ?
73 to 75 °C

Which melting point is listed for COc1nc(C)nc(NNC(N)=NS(=O)(=O)c2ccccc2OC(F)(F)F)n1 ?
245 °C

Which melting point is listed for CCC(C)(C)OC(=O)NC(C)(Cc1c[nH]c2ccccc12)C(=O)NCCc1ccncc1 (stereo not drawn) ?
138 to 141 °C

Which melting point is listed for CNCc1cc(=O)oc2cc(OC)ccc12 ?
109 to 110 °C

Which melting point is listed for Cc1onc(OCC(=O)NCCO[N+](=O)[O-])c1Br ?
87 to 88 °C

Which melting point is listed for COc1c(-c2cc3c(s2)CCC(O)C3)ccc2c(=O)c(C(=O)O)cn(C3CC3)c12 (stereo not drawn) ?
232 to 233 °C

Which melting point is listed for CCOC(=O)C(=CNc1c(C#N)cnn1-c1ccc(Cl)c(Cl)c1Cl)C(=O)OCC ?
157 to 158 °C

Which melting point is listed for CC(C)(C)C(O)(COc1ccccc1)c1cncnc1 (stereo not drawn) ?
127 to 129 °C

Which melting point is listed for O=C1Nc2cc(Cl)ccc2C(=O)C1c1cc2ccccc2o1 (stereo not drawn) ?
342 °C

Which melting point is listed for CC=C(Oc1nc(OC)cc(OC)n1)C(=O)OC ?
71 °C

Which melting point is listed for COc1ccc2c(c1OC)CCN(Cc1ccc(-c3ccc(-c4cccc(N)n4)cc3)cc1)C2 ?
205 to 209 °C

Which melting point is listed for CN(C)C(=O)Nc1nc2ccccc2s1 ?
214 to 216 °C

Which melting point is listed for Cc1ccc(S(=O)(=O)N2CCOC(C)(C)C2)cc1 ?
95 to 97 °C

---

endpoint: melting point

Which melting point is listed for N#Cc1cc(F)c(-n2ncc(Cl)c(Cl)c2=O)cc1F ?
206 °C

Which melting point is listed for CN1CCN(CC/C=C/c2cc3ncc(C#N)c(Nc4ccc(Sc5nccn5C)c(Cl)c4)c3cc2F)CC1 ?
188 to 194 °C

Which melting point is listed for CCOC(=O)C(=C(c1ccc(F)cc1)c1ccc(F)cc1)c1nnn(C(C)(C)C)n1 ?
143 to 144 °C

Which melting point is listed for CCc1cc2nc(N)c(-c3ccccc3)cc2c(CC)n1 ?
110 to 112 °C

Which melting point is listed for CC12CCC3C(CC=C4CC(O)CCC43C)C1CC=C2I (stereo not given) ?
169 to 171 °C

Which melting point is listed for O=S1(=O)NCN(C2CC2)c2cc(Br)cc(C(F)(F)F)c21 ?
200 to 201 °C

Which melting point is listed for Cc1cc(C2=NN=C(C(N)=O)Cc3cc4c(cc32)OCO4)ccc1[N+](=O)[O-] ?
266 to 268 °C

Which melting point is listed for CNC(=O)c1cnn(-c2ccc(Br)cc2)c1C#N ?
240 to 241 °C

Which melting point is listed for COc1ccc(C#N)c(F)c1O ?
198 to 200 °C

Which melting point is listed for COc1ccc2c(c1)CCN1C[C@H]3CCCN(S(C)(=O)=O)[C@H]3C[C@@H]21 ?
165 to 166 °C

Which melting point is listed for CN(c1ccc(S(C)(=O)=O)cc1)S(=O)(=O)c1cccc(NC(=O)c2ccc(S(C)=O)cc2)c1 (stereo not given) ?
184 to 186 °C

Which melting point is listed for CNc1ncnc2c1ncn2C1OC(CO)C(O)C1O (stereo not given) ?
202 °C

Which melting point is listed for CCN(CC)N(C(C)=O)c1nc2cc3nc(N(C(C)=O)N(CC)CC)sc3cc2s1 ?
224 to 225 °C

Which melting point is listed for Nc1ccc(Cl)cc1C=Nc1ccccc1 ?
74 °C

Which melting point is listed for COC(OC)C1(C)CCc2c(C)c(O)c(C)c(C)c2O1 (stereo not given) ?
102 to 106 °C

---

endpoint: melting point

Which melting point is listed for CCN(CC)C(=O)c1ccc2ccccc2c1-c1ccc(OC)cc1 ?
114 to 116 °C

Which melting point is listed for CC(CSc1cc(C(C)(C)C)c(O)c(C(C)(C)C)c1)C(=O)N1CCCC1 (stereo not drawn) ?
125 to 126 °C

Which melting point is listed for O=C(OCc1ccccc1)N1c2ccc(I)cc2CC1CO (stereo not drawn) ?
110 to 111 °C

---

Please respond with reported melting point for every item in the list.

Which melting point is listed for O=C(Nc1ccc(-n2nc(C(F)(F)F)cc2C2CC2)nc1)c1c(F)cccc1F ?
157 to 162 °C

Which melting point is listed for COc1ncc(-c2nn(C(C)c3oc4ccccc4c(=O)c3-c3cccc(F)c3)c3ncnc(N)c23)c(OC)n1 (configuration not stated) ?
286 to 290 °C

Which melting point is listed for Cc1nc(O)c(-c2ccccc2)s1 ?
208 to 211 °C

Which melting point is listed for CCN(CC)CCNC(=O)c1c2ccccc2nc2ccc(I)cc12 ?
83 to 85 °C

Which melting point is listed for N#Cc1ncn(C2OC(COC(=O)c3ccccc3)C(OC(=O)c3ccccc3)C2OC(=O)c2ccccc2)c1C#N (configuration not stated) ?
68 to 72 °C

Which melting point is listed for O=C(O)c1cc(S(=O)(=O)N2CCCCC2)c(Cl)cc1Cl ?
200 to 205 °C

Which melting point is listed for CCc1c(C(F)(F)F)nn(-c2ccc(S(N)(=O)=O)nc2)c1-c1ccc(-c2cncs2)c(F)c1 ?
189 to 191 °C

Which melting point is listed for CCOC(=O)c1sc2cc(OCc3cccnc3)ccc2c1Sc1ccccc1N(S(C)(=O)=O)S(C)(=O)=O ?
165 to 167 °C

Which melting point is listed for CCN(C(=O)NC)c1nnc(C(C)(C)C)s1 ?
112 °C

Which melting point is listed for CC(C)CC(NC(=O)C(C)NC(=O)C(CC(=O)N1CCOCC1)Cc1cccc2ccccc12)C(O)C(=O)OC(C)C (mixture of isomers) ?
178 to 183 °C

Which melting point is listed for CC(C)c1ccc(C(=O)C2=C(O)C(=O)N(c3ccc(OCc4ccccc4)nn3)C2c2ccc(OC(F)(F)F)cc2)cc1 (configuration not stated) ?
269 °C

Which melting point is listed for COc1ccc(-c2sc3cc(OC)ccc3c2C(=O)c2cc(OC)cc(OC)c2)cc1 ?
114 to 120 °C

---

Please respond with reported melting point for every item in the list.

Which melting point is listed for Cc1nc2c(-c3cccc(N4CCN(C)CC4)c3)cnn2c(N)c1-c1cccc(Br)c1 ?
107 to 113 °C

Which melting point is listed for CCCN(CCC)C1COc2cccc(C(=O)C(C)C)c2C1 (centres undefined) ?
60 to 62 °C

Which melting point is listed for CS(=O)(=O)SCCOC(=O)Cc1cccc(Nc2c(Cl)cccc2Cl)c1 ?
41 to 44 °C

Which melting point is listed for CC(=O)N(C(C)=O)c1nsc2ccccc12 ?
65 to 67 °C

Which melting point is listed for COc1ccccc1NC(=O)Nc1nc(Nc2ccccc2-c2ccccc2)nc(N(CCC(=O)O)Cc2cccs2)n1 ?
115 to 120 °C

Which melting point is listed for OCCCn1cc(-c2cc3nccnc3[nH]2)c2ccccc21 ?
220 to 221 °C

Which melting point is listed for COc1ccc2cnc(Nc3ccccc3)nc2c1C(C)C ?
172 to 173 °C

Which melting point is listed for CCCCN(CC1Cc2cc(Cl)cc(Cl)c2O1)C(=O)n1ccnc1 (centres undefined) ?
98 to 100 °C

Which melting point is listed for CNC(=O)[C@H](C)C[C@H](O)[C@H](CC1CCCCC1)NC(=O)[C@H](Cc1cscn1)NC(=O)OC(C)(C)C ?
158 to 160 °C

Which melting point is listed for CCOC(=O)c1ccc(NCCCCCCOc2ccc3ccccc3c2)cc1 ?
109 to 110 °C

Which melting point is listed for COc1ccc(C(=O)Nc2ccc(C3(CNC(C)=O)CC3)cc2)cc1OC ?
204 to 206 °C

Which melting point is listed for C=CCCCn1ncc2c(OCC)c(C(=O)OCC)cnc21 ?
61 to 62 °C

Which melting point is listed for Fc1ccc2[nH]cc(C3=CCN(CC4COc5ccc6c(c5O4)OCCC6)CC3)c2c1 (centres undefined) ?
146 to 148 °C

Which melting point is listed for O=C(Nc1cccc(C(=NO)c2ccccc2)c1)c1ccn2c1CSC2c1cccnc1 (single isomer, unassigned; (+)) ?
130 °C
